system: TMD8 cells; test: 4-day proliferation assay, TMD8; format: cell-based; settings: Homo sapiens, 96 h, 4 days incubation, CellTiterGLO, read-out: Anti-proliferation: TMD-8 IC50
Note that class boundaries on IC50 are LOW (below 3 µM), MID (3 µM to below 8 µM), HIGH (8 µM or more)

>>> df
                                 smiles_repr  label_class
 0  O=C(Nc1cnc(-n2nccn2)c(Cl)c1)c1cnn(-c2nccn3cccc23)c1C(F)(F)F         HIGH
 1  Nc1nccc(-c2ccc(NC(=O)c3cnn(-c4cncc5ccccc45)c3C(F)(F)F)cc2Cl)n1          MID
 2  N#Cc1cc(NC(=O)c2cnn(-c3nccc4ccsc34)c2C(F)(F)F)cnc1-n1nccn1         HIGH
 3  Cc1ccc2ncccc2c1-n1ncc(C(=O)Nc2cnc(-n3nccn3)c(Cl)c2)c1C(F)(F)F         HIGH
 4  O=C(Nc1cnc(-n2nccn2)c(Cl)c1)c1cnn(-c2cc[n+]([O-])c3ccccc23)c1C(F)(F)F          MID
 5  O=C(Nc1ccnc(C(F)(F)F)c1)c1cnn(-c2cccc3ccccc23)c1C(F)(F)F         HIGH
 6  Nc1ncc(-n2ncc(C(=O)Nc3cnc(-n4nccn4)c(Cl)c3)c2C(F)(F)F)c2ccccc12          LOW
 7  Nc1cnnn1-c1ncc(NC(=O)c2cnn(-c3cccc4c(=O)[nH]ccc34)c2C(F)(F)F)cc1Cl         HIGH
 8  N#Cc1cnn(-c2ncc(NC(=O)c3cnn(-c4cccc5ncccc45)c3C(F)(F)F)cc2Cl)n1          LOW
 9  Cc1ccc(-n2ncc(C(=O)Nc3cnc(-n4nccn4)c(Cl)c3)c2C(F)(F)F)c2cccnc12          MID
10  Cc1cncc2c(-n3ncc(C(=O)Nc4cnc(-n5nccn5)c(Cl)c4)c3C(F)(F)F)cccc12         HIGH
11  N#Cc1cc(NC(=O)c2cnn(-c3cccc4c(=O)[nH]ccc34)c2C(F)(F)F)cnc1-n1nccn1         HIGH
12  N#Cc1cc(NC(=O)c2cnn(-c3ccc(N)c4ccccc34)c2C(F)(F)F)cnc1-n1nccn1          MID
13  N#Cc1cc(NC(=O)c2cnn(-c3cncc4ccccc34)c2C(F)(F)F)cnc1OCCCCN         HIGH
14  COC(=O)c1cc(NC(=O)c2cnn(-c3cncc4ccccc34)c2C(F)(F)F)cc(Cl)n1         HIGH
15  N#Cc1cc(NC(=O)c2cnn(-c3cccc4c(F)cccc34)c2C(F)(F)F)cnc1-n1nccn1          LOW
16  O=C(O)c1cnn(-c2ncc(NC(=O)c3cnn(-c4cccc5ncccc45)c3C(F)(F)F)cc2Cl)n1         HIGH
17  Cn1ccc(-c2ncc(NC(=O)c3cnn(-c4cccc5ccncc45)c3C(F)(F)F)cc2Cl)n1         HIGH
18  N#Cc1cc(NC(=O)c2cnn(-c3cccc4ncccc34)c2C(F)(F)F)cnc1-n1ncc(CO)n1          MID
19  O=C(Nc1cnc(OC2CC2)c(Cl)c1)c1cnn(-c2cccc3ncccc23)c1C(F)(F)F         HIGH
20  N#Cc1cc(NC(=O)c2cnn(-c3cccc4nccn34)c2C(F)(F)F)cnc1-n1nccn1          MID
21  COCc1cnn(-c2ncc(NC(=O)c3cnn(-c4cccc5ncccc45)c3C(F)(F)F)cc2Cl)n1          LOW
22  O=C(Nc1cnc(-n2nccn2)c(C(F)(F)F)c1)c1cnn(-c2cccc3ncccc23)c1C(F)(F)F          LOW
23  O=C(Nc1cnc(-n2ncc(CO)n2)c(Cl)c1)c1cnn(-c2cccc3c(=O)[nH]ccc23)c1C(F)(F)F         HIGH
24  COC(=O)c1cnn(-c2ncc(NC(=O)c3cnn(-c4cccc5ncccc45)c3C(F)(F)F)cc2Cl)n1          LOW

Entry source: patent US10954214B2
